- System Tested: mouse CB2 receptor (Mus musculus, UniProt P47936)
- Sequence (P47936 whole entry): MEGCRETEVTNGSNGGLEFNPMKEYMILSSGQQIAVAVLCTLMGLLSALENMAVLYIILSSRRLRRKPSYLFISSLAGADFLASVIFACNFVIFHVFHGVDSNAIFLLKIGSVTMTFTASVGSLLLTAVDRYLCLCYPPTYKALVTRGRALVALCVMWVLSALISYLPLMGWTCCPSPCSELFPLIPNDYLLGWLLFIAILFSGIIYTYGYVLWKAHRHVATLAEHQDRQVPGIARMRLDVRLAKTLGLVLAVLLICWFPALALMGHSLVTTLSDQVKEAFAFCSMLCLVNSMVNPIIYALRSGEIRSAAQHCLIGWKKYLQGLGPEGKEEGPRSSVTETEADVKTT
- Assay Details: β-arrestin recruitment assay (PathHunter CHO-K1)
- Condition Label: antagonist activity; read-out: β-arrestin potency, mouse CB2 (* indicates antagonist activity)
Quantity: pIC50
The read-out pIC50 is expressed as -log10 of concentration in moles per litre.

Query :: Input `Cc1nc(N2CCN(C)CC2)c2nc(-c3ccccc3Cl)n(C3CCOCC3)c2n1` , output reported pIC50.
Result :: 7.25
